Test: refractive index (Na D-line) (dimensionless)
Settings: 328.15 K; 101.33 kPa; Liquid; Standard Abbe refractometry
MEASURE: refractive index

{"MOLECULE": "CCCC[n+]1ccccc1.O=S(=O)([N-]S(=O)(=O)C(F)(F)F)C(F)(F)F [1-butylpyridinium bis[(trifluoromethyl)sulfonyl]imide]", "NUMBER": 1.4339}
{"MOLECULE": "CC[S+](CC)CC.O=S(=O)([N-]S(=O)(=O)C(F)(F)F)C(F)(F)F [triethylsulfonium bis((trifluoromethyl)sulfonyl)imide]", "NUMBER": 1.4175}
{"MOLECULE": "CCCC[N+]1(C)CCCC1.N#CN=C=[N-] [1-butyl-1-methylpyrrolidinium dicyanamide]", "NUMBER": 1.481}
{"MOLECULE": "CC[S+](C)CC.O=S(=O)([N-]S(=O)(=O)C(F)(F)F)C(F)(F)F [diethylmethylsulfonium bis[(trifluoromethyl)sulfonyl]imide]", "NUMBER": 1.4146}

---

Conditions: 308.15 K; 101.33 kPa; Liquid; Falling or rolling sphere viscometry
Each record here notes measured viscosity.

{"COMPOUND": "CCCC[n+]1ccccc1.O=S(=O)([N-]S(=O)(=O)C(F)(F)F)C(F)(F)F [1-butylpyridinium bis[(trifluoromethyl)sulfonyl]imide]", "MEASURE UNIT": "mPa·s", "viscosity": 40.14}
{"COMPOUND": "CC[S+](CC)CC.O=S(=O)([N-]S(=O)(=O)C(F)(F)F)C(F)(F)F [triethylsulfonium bis((trifluoromethyl)sulfonyl)imide]", "MEASURE UNIT": "mPa·s", "viscosity": 23.5}
{"COMPOUND": "CC[S+](C)CC.O=S(=O)([N-]S(=O)(=O)C(F)(F)F)C(F)(F)F [diethylmethylsulfonium bis[(trifluoromethyl)sulfonyl]imide]", "MEASURE UNIT": "mPa·s", "viscosity": 28.55}
{"COMPOUND": "CCCCCCCC[N+](C)(CCCCCCCC)CCCCCCCC.O=C([O-])C(F)(F)F [methyltrioctylammonium trifluoroacetate]", "MEASURE UNIT": "mPa·s", "viscosity": 735.2}

---

Conditions: 348.15 K; 101.33 kPa; Liquid; Alternating current cell with electrodes
MEASURE: log10 of electrical conductivity (log10 of the value in S/m)

{"COMPOUND": "CCCC[N+]1(C)CCCC1.N#CN=C=[N-] [1-butyl-1-methylpyrrolidinium dicyanamide]", "log10 of electrical conductivity": 0.59}
{"COMPOUND": "CCCC[n+]1ccccc1.O=S(=O)([N-]S(=O)(=O)C(F)(F)F)C(F)(F)F [1-butylpyridinium bis[(trifluoromethyl)sulfonyl]imide]", "log10 of electrical conductivity": 0.17}
{"COMPOUND": "CC[S+](CC)CC.O=S(=O)([N-]S(=O)(=O)C(F)(F)F)C(F)(F)F [triethylsulfonium bis((trifluoromethyl)sulfonyl)imide]", "log10 of electrical conductivity": 0.39}
{"COMPOUND": "CCCCCCCC[N+](C)(CCCCCCCC)CCCCCCCC.O=C([O-])C(F)(F)F [methyltrioctylammonium trifluoroacetate]", "log10 of electrical conductivity": -1.53}
{"COMPOUND": "CC[S+](C)CC.O=S(=O)([N-]S(=O)(=O)C(F)(F)F)C(F)(F)F [diethylmethylsulfonium bis[(trifluoromethyl)sulfonyl]imide]", "log10 of electrical conductivity": 0.39}

---

# refractive index listing for each entry below
Assay: refractive index (Na D-line) (dimensionless)
Details: 288.15 K; 101.33 kPa; Liquid; Standard Abbe refractometry
Numbers after ± are expanded uncertainties.
MEASURE: refractive index

{"COMPOUND": "CC[S+](C)CC.O=S(=O)([N-]S(=O)(=O)C(F)(F)F)C(F)(F)F [diethylmethylsulfonium bis[(trifluoromethyl)sulfonyl]imide]", "MEASURE": "refractive index", "RESULT": "1.4262 ± 0.0029"}
{"COMPOUND": "CCCC[n+]1ccccc1.O=S(=O)([N-]S(=O)(=O)C(F)(F)F)C(F)(F)F [1-butylpyridinium bis[(trifluoromethyl)sulfonyl]imide]", "MEASURE": "refractive index", "RESULT": "1.4459 ± 0.0029"}
{"COMPOUND": "CC[S+](CC)CC.O=S(=O)([N-]S(=O)(=O)C(F)(F)F)C(F)(F)F [triethylsulfonium bis((trifluoromethyl)sulfonyl)imide]", "MEASURE": "refractive index", "RESULT": "1.4293 ± 0.0029"}
{"COMPOUND": "CCCC[N+]1(C)CCCC1.N#CN=C=[N-] [1-butyl-1-methylpyrrolidinium dicyanamide]", "MEASURE": "refractive index", "RESULT": "1.4862 ± 0.003"}

---

Each entry below lists one item and its recorded refractive index value.
Experiment: refractive index (Na D-line) (dimensionless)
Settings: 343.15 K; 101.33 kPa; Liquid; Standard Abbe refractometry
MEASURE: refractive index

{"COMPOUND": "CCCC[n+]1ccccc1.O=S(=O)([N-]S(=O)(=O)C(F)(F)F)C(F)(F)F [1-butylpyridinium bis[(trifluoromethyl)sulfonyl]imide]", "NUMBER": 1.4294}
{"COMPOUND": "CCCC[N+]1(C)CCCC1.N#CN=C=[N-] [1-butyl-1-methylpyrrolidinium dicyanamide]", "NUMBER": 1.4779}
{"COMPOUND": "CC[S+](C)CC.O=S(=O)([N-]S(=O)(=O)C(F)(F)F)C(F)(F)F [diethylmethylsulfonium bis[(trifluoromethyl)sulfonyl]imide]", "NUMBER": 1.4103}
{"COMPOUND": "CC[S+](CC)CC.O=S(=O)([N-]S(=O)(=O)C(F)(F)F)C(F)(F)F [triethylsulfonium bis((trifluoromethyl)sulfonyl)imide]", "NUMBER": 1.4134}

---

Assay: refractive index (Na D-line) (dimensionless)
Settings: 298.15 K; 101.33 kPa; Liquid; Standard Abbe refractometry

{"COMPOUND": "CC[S+](CC)CC.O=S(=O)([N-]S(=O)(=O)C(F)(F)F)C(F)(F)F [triethylsulfonium bis((trifluoromethyl)sulfonyl)imide]", "refractive index": 1.4264}
{"COMPOUND": "CCCC[N+]1(C)CCCC1.N#CN=C=[N-] [1-butyl-1-methylpyrrolidinium dicyanamide]", "refractive index": 1.4847}
{"COMPOUND": "CC[S+](C)CC.O=S(=O)([N-]S(=O)(=O)C(F)(F)F)C(F)(F)F [diethylmethylsulfonium bis[(trifluoromethyl)sulfonyl]imide]", "refractive index": 1.4233}
{"COMPOUND": "CCCC[n+]1ccccc1.O=S(=O)([N-]S(=O)(=O)C(F)(F)F)C(F)(F)F [1-butylpyridinium bis[(trifluoromethyl)sulfonyl]imide]", "refractive index": 1.4429}

---

Conditions: 358.15 K; 101.33 kPa; Liquid; Alternating current cell with electrodes
MEASURE: electrical conductivity (S/m)

{"COMPOUND": "CCCC[N+]1(C)CCCC1.N#CN=C=[N-] [1-butyl-1-methylpyrrolidinium dicyanamide]", "NUMBER": 4.58}
{"COMPOUND": "CC[S+](C)CC.O=S(=O)([N-]S(=O)(=O)C(F)(F)F)C(F)(F)F [diethylmethylsulfonium bis[(trifluoromethyl)sulfonyl]imide]", "NUMBER": 2.88}
{"COMPOUND": "CC[S+](CC)CC.O=S(=O)([N-]S(=O)(=O)C(F)(F)F)C(F)(F)F [triethylsulfonium bis((trifluoromethyl)sulfonyl)imide]", "NUMBER": 2.91}
{"COMPOUND": "CCCCCCCC[N+](C)(CCCCCCCC)CCCCCCCC.O=C([O-])C(F)(F)F [methyltrioctylammonium trifluoroacetate]", "NUMBER": 0.0444}
{"COMPOUND": "CCCC[n+]1ccccc1.O=S(=O)([N-]S(=O)(=O)C(F)(F)F)C(F)(F)F [1-butylpyridinium bis[(trifluoromethyl)sulfonyl]imide]", "NUMBER": 1.8}

---

Assay: refractive index (Na D-line) (dimensionless)
Conditions: 308.15 K; 101.33 kPa; Liquid; Standard Abbe refractometry
MEASURE: refractive index

{"COMPOUND": "CC[S+](C)CC.O=S(=O)([N-]S(=O)(=O)C(F)(F)F)C(F)(F)F [diethylmethylsulfonium bis[(trifluoromethyl)sulfonyl]imide]", "NUMBER": 1.4204}
{"COMPOUND": "CC[S+](CC)CC.O=S(=O)([N-]S(=O)(=O)C(F)(F)F)C(F)(F)F [triethylsulfonium bis((trifluoromethyl)sulfonyl)imide]", "NUMBER": 1.4234}
{"COMPOUND": "CCCC[n+]1ccccc1.O=S(=O)([N-]S(=O)(=O)C(F)(F)F)C(F)(F)F [1-butylpyridinium bis[(trifluoromethyl)sulfonyl]imide]", "NUMBER": 1.4399}
{"COMPOUND": "CCCC[N+]1(C)CCCC1.N#CN=C=[N-] [1-butyl-1-methylpyrrolidinium dicyanamide]", "NUMBER": 1.4836}

---

Conditions: 338.15 K; 101.33 kPa; Liquid; Falling or rolling sphere viscometry
Readings of viscosity for the listed molecules
MEASURE: viscosity (mPa·s)

{"MOLECULE": "CC[S+](C)CC.O=S(=O)([N-]S(=O)(=O)C(F)(F)F)C(F)(F)F [diethylmethylsulfonium bis[(trifluoromethyl)sulfonyl]imide]", "MEASURE": "viscosity", "NUMBER": 12.34}
{"MOLECULE": "CCCC[n+]1ccccc1.O=S(=O)([N-]S(=O)(=O)C(F)(F)F)C(F)(F)F [1-butylpyridinium bis[(trifluoromethyl)sulfonyl]imide]", "MEASURE": "viscosity", "NUMBER": 15.42}
{"MOLECULE": "CCCCCCCC[N+](C)(CCCCCCCC)CCCCCCCC.O=C([O-])C(F)(F)F [methyltrioctylammonium trifluoroacetate]", "MEASURE": "viscosity", "NUMBER": 126.7}
{"MOLECULE": "CC[S+](CC)CC.O=S(=O)([N-]S(=O)(=O)C(F)(F)F)C(F)(F)F [triethylsulfonium bis((trifluoromethyl)sulfonyl)imide]", "MEASURE": "viscosity", "NUMBER": 10.44}
